This collection of values is drawn from patent EP3917907B1.

# test_description: Solution stability (HPLC, extracellular solution, ambient temperature)
# Format: physicochemical
# assay_setup: percentage of degradation after 6 h at ambient temperature; 100 ppm in extracellular solution pH 7.4

smiles_record	Solution stability
O=S(=O)(Nc1ccc2c(c1)CCN2Cc1ccc(F)cc1)N1CCCCCC1	B (20%< degradation<40%)
O=S(=O)(Nc1ccc2c(c1)CCN2Cc1ccc(C(F)(F)F)cc1C(F)(F)F)C1CCCCC1	B (20%< degradation<40%)

====

# tested_on: Kv7.2 (Homo sapiens, UniProt O43526)
# Construct: expressed in transfected cells; host or cells: CHO cells (ATCC CRL-9618), transient transfection, pcDNA3.1(+)
# test_description: Whole-cell patch-clamp on CHO cells transiently expressing Kv7.2
# Type: cell-based
# assay_setup: ratio of ramp-evoked Kv7.2 current amplitude in presence and absence of drug at 0 mV; CHO cells; mean±SEM; >1 activating, <1 inhibiting
Measured Idrug/Ictl at 0 mV accompanies every entry in the list below.

compound	Idrug/Ictl at 0 mV
O=S(=O)(Nc1ccc(NCc2ccc(F)cc2)c(F)c1)C1CCCCC1	0.83
O=C(Nc1ccc2c(c1)CCN2Cc1ccc(F)cc1)NC1CCCCC1	0.85
O=S(=O)(Nc1ccc2c(c1)CCN2Cc1ccc(C(F)(F)F)cc1C(F)(F)F)C1CCCCC1	1.22
CCCCCCC(=O)Nc1ccc(NCc2ccc(C(F)(F)F)cc2)cc1N	2.55
O=S(=O)(Nc1ccc2c(c1)CCN2Cc1ccc(F)cc1)c1ccccc1	0.64
CCOC(=O)Nc1ccc(NCc2ccc(F)cc2)cc1N [Retigabine, reference compound]	1.95
O=S(=O)(CCC1CCCCC1)Nc1ccc2c(ccn2Cc2ccc(F)cc2)c1	1.18
O=[N+]([O-])c1cc(Br)ccc1CN1CCc2cc(NS(=O)(=O)C3CCCCC3)ccc21	3.09
O=S(=O)(Nc1ccc2c(ccn2Cc2ccc(F)cc2)c1)C1CCCCC1	2.76
COc1ccc(CN2CCc3cc(NS(=O)(=O)C4CCCCC4)ccc32)cc1	4.24
O=S(=O)(Nc1ccc2c(c1)CCN2Cc1ccc(C(F)(F)F)cc1)C1CCCCC1	2.37
O=S(=O)(Nc1ccc2c(c1)CCN2Cc1ccc(F)cc1F)C1CCCCC1	3.79
CN1CCN(S(=O)(=O)Nc2ccc3c(c2)CCN3Cc2ccc(F)cc2)CC1	0.95
COCCOCC(=O)Nc1ccc2c(ccn2Cc2ccc(C(F)(F)F)cc2)c1	0.86
O=S(=O)(Nc1ccc2c(c1)CCN2Cc1ccc(F)c(F)c1)C1CCCCC1	2.11
CC(C)(C)CC(=O)Nc1ccc2c(ccn2Cc2ccc(C(F)(F)F)cc2)c1	3.54
CC(C)[C@H]1CC[C@H](C)C[C@@H]1OC(=O)Nc1ccc2c(c1)CCN2Cc1ccc(F)cc1	0.48
CCCCCCS(=O)(=O)Nc1ccc2c(c1)CCN2Cc1ccc(F)cc1	2.18
O=C(CC1CCCCC1)Nc1ccc2c(c1)CCN2Cc1ccc(F)cc1	1.71
Nc1cc(NCc2ccc(C(F)(F)F)cc2)ccc1NS(=O)(=O)C1CCCCC1	0.19
CC(C)CS(=O)(=O)Nc1ccc2c(c1)CCN2Cc1ccc(F)cc1	1.93
CCCCCCC(=O)Nc1ccc(NCc2ccc(C(F)(F)F)cc2)c(F)c1N	1.94
CCCCS(=O)(=O)Nc1ccc2c(c1)CCN2Cc1ccc(F)cc1	1.55
O=C(c1ccc(F)cc1)N1CCc2cc(NS(=O)(=O)C3CCCCC3)ccc21	1.22
CC(C)(C)CNC(=O)Nc1ccc2c(c1)CCN2Cc1ccc(F)cc1	1.40
CC(C)(C)CNC(=N)Nc1ccc2c(c1)CCN2Cc1ccc(F)cc1	0.84
O=S(=O)(Nc1ccc2c(c1)CCN2Cc1ccc(F)cc1)N1CCCCCC1	0.98
O=S(=O)(Nc1ccc2c(c1)CCN2CCc1ccc(F)cc1)C1CCCCC1	1.37
CCCCCCC(=O)Nc1ccc(NCc2ccc(F)cc2)c(F)c1	3.30
CCOC(=O)Nc1ccc2c(c1)CCN2Cc1ccc(F)cc1	1.26
O=S(=O)(Nc1ccc2c(ccn2Cc2ccc(C(F)(F)F)cc2)c1)C1CCCCC1	1.93
CC1(C)[C@H]2CC[C@]1(CS(=O)(=O)Nc1ccc3c(c1)CCN3Cc1ccc(F)cc1)C(=O)C2	1.16
O=C(Cc1ccc(Cl)cc1)N1CCc2cc(NS(=O)(=O)C3CCCCC3)ccc21	1.18
COc1ccc(CN2c3ccc(NS(=O)(=O)C4CCCCC4)cc3CC2C)cc1 (stereo not drawn)	0.92
CCCCCCC(=O)Nc1ccc(NCc2ccc(OC(F)(F)F)cc2)cc1N	2.05
O=C(Nc1ccc2c(c1)CCN2Cc1ccc(F)cc1)C1CCCCC1	0.66
